test: Cytotoxicity against HEL cells assessed as inhibition of cell proliferation; format: cell-based; conditions: human
metric: CC50 (µM)
Numeric only. Scale: µM

CCCCCc1ccc(-c2cc3cn([C@H]4C[C@H](O)[C@@H](COC(=O)[C@H](CC(C)C)NC(=O)[C@@H]5CCCN5C(=O)[C@@H](N)C(C)C)O4)c(=O)nc3o2)cc1 = 31
CCCCCc1ccc(-c2cc3cn([C@H]4C[C@H](O)[C@@H](COC(=O)[C@@H](NC(=O)[C@@H]5CCCN5C(=O)[C@@H](N)CC(=O)O)C(C)C)O4)c(=O)nc3o2)cc1 = 52
CCCCCc1ccc(-c2cc3cn([C@H]4C[C@H](OC(=O)[C@@H](NC(=O)[C@@H]5CCCN5C(=O)[C@@H](N)C(C)C)C(C)C)[C@@H](COC(=O)[C@@H](NC(=O)[C@@H]5CCCN5C(=O)[C@@H](N)C(C)C)C(C)C)O4)c(=O)nc3o2)cc1 = 50
CCCCCc1ccc(-c2cc3cn([C@H]4C[C@H](OC(=O)[C@@H](NC(=O)[C@@H]5CCCN5C(=O)[C@@H](N)C(C)C)C(C)C)[C@@H](CO)O4)c(=O)nc3o2)cc1 = 17
CCCCCc1ccc(-c2cc3cn([C@H]4C[C@H](O)[C@@H](COC(=O)[C@@H](NC(=O)[C@@H]5CCCN5C(=O)[C@@H](N)CC(N)=O)C(C)C)O4)c(=O)nc3o2)cc1 = 56

Asked: Would you mind telling me what CC50 value was observed for CCCCCc1ccc(-c2cc3cn([C@H]4C[C@H](O)[C@@H](COC(=O)[C@H](Cc5ccccc5)NC(=O)[C@@H]5CCCN5C(=O)[C@@H](N)C(C)C)O4)c(=O)nc3o2)cc1 ?
Given back: 40

Asked: Would you mind telling me what CC50 value was observed for CCCCCc1ccc(-c2cc3cn([C@H]4C[C@H](O)[C@@H](COC(=O)[C@@H](NC(=O)[C@@H]5CCCN5C(=O)[C@@H](N)CCCCN)C(C)C)O4)c(=O)nc3o2)cc1 ?
Given back: 29

Asked: Would you mind telling me what CC50 value was observed for CCCCCc1ccc(-c2cc3cn([C@H]4C[C@H](O)[C@@H](COC(=O)[C@H](C)NC(=O)[C@@H]5CCCN5C(=O)[C@@H](N)C(C)C)O4)c(=O)nc3o2)cc1 ?
Given back: 44

Taken from ChEMBL document CHEMBL1687922.
